- measurement-target: human TRPV4 (Homo sapiens, UniProt Q9HBA0)
- Construct: expressed in transfected cells; host or cells: CHO-K1
- Sequence (Q9HBA0 whole entry): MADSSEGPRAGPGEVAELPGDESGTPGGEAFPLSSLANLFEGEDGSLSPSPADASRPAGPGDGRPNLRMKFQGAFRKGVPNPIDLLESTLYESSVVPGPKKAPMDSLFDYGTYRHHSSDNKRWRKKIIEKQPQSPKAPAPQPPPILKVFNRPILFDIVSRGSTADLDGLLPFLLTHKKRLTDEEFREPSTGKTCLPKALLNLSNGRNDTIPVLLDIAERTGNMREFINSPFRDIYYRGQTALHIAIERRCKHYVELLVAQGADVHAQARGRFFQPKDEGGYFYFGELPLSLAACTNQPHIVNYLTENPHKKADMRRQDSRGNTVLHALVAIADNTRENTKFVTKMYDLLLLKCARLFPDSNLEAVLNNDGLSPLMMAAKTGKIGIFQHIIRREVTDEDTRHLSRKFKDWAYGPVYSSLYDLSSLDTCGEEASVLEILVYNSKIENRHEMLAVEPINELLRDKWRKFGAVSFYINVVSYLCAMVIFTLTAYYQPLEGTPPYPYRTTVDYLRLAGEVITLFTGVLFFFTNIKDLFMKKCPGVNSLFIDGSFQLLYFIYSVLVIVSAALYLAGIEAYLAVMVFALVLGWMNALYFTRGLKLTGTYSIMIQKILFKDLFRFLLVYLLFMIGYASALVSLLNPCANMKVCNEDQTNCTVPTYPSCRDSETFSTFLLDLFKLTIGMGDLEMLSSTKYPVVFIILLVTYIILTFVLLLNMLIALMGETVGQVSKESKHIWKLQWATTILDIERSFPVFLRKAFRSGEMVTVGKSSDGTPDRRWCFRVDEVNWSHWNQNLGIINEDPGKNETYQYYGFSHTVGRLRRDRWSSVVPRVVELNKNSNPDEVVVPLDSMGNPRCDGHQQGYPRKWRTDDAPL
- assay-summary: Test Example 1 Measurement of TRPV4 inhibitory activity (IC50 value)
- Type: cell-based
- particulars: CHO-K1 cells stably expressing human TRPV4; Fluo 4-AM, FLIPR TETRA; final 1 μmol/L 4α-PDD
Attribute: pIC50
Just the number, please; pIC50 means minus log10 of the concentration in mol/L.

Example entries and their recorded answers appear below.
molecule=Cc1nc(C)c(-c2csc(Nc3ccc(C(=O)NC(C)(C)C(F)(F)F)cn3)n2)s1 value_reported=8.48
molecule="Cc1nc(C(C)O)sc1-c1csc(Nc2ccc(OC(F)(F)F)cn2)n1 (stereo not shown)" value_reported=7.38
molecule=Cc1nc(C)c(-c2csc(Nc3ccc(CNC4(C(F)(F)F)CCCC4)cn3)n2)s1 value_reported=8.77

Prompt: Answer with the recorded pIC50 for the molecule listed here: Cc1nc(C)c(-c2csc(Nc3ccc(CN(CC(C)C)c4ccc(Cl)cc4F)cn3)n2)s1
Response: 8.60

###

- measurement-target: human TRPV4 (Homo sapiens, UniProt Q9HBA0)
- Construct: expressed in transfected cells; host or cells: CHO-K1
- assay-summary: Test Example 1 Measurement of TRPV4 inhibitory activity (IC50 value)
- Assay type: cell-based
- particulars: CHO-K1 cells stably expressing human TRPV4; Fluo 4-AM, FLIPR TETRA; final 1 μmol/L 4α-PDD
Checkbox rule: IC50 lower than 30 nM = Satisfied; IC50 not lower than 30 nM = Not satisfied.

Solved entries (count: 6):
compound="Cc1nc(C(C)O)sc1-c1csc(Nc2ccc(CCOc3ccc(Cl)cc3F)cn2)n1 (stereo not drawn) [Compound I-6]" answer_label="Not satisfied"
compound="CC(=O)N(Cc1ccc(Nc2nc(-c3sc(C)nc3C)cs2)nc1)c1ccc(Cl)cc1F [Compound I-49]" answer_label=Satisfied
compound="CO[C@H]1C[C@H]2CC[C@@H](C1)N2C(=O)c1ccc(Nc2nc(-c3sc(C(N)=O)nc3C)cs2)nc1 [Compound I-118]" answer_label=Satisfied
compound="Cc1nc(C)c(-c2c[nH]c(Nc3ccc(CNc4ccc(Cl)cc4F)cn3)n2)s1 [Compound I-41]" answer_label="Not satisfied"
compound="Cc1nc(C(C)O)sc1-c1csc(Nc2ccc(C(=O)Nc3ccc(C#N)cc3F)cn2)n1 (stereo not drawn) [Compound I-134]" answer_label=Satisfied
compound="CC(O)c1nc(CC#N)c(-c2csc(Nc3ccc(CNc4ccc(Cl)cc4F)cn3)n2)s1 (stereo not drawn) [Compound I-132]" answer_label=Satisfied

Prompt: Bench note: check whether Cc1nc(C(C)O)sc1-c1csc(Nc2ccc(CNc3ccc(Cl)cc3F)cn2)n1.Cl.Cl (stereo not drawn) [Compound I-157] shows IC50 below 30 nM
Response: Satisfied

Prompt: Bench note: check whether Cc1nc(C)c(-c2csc(Nc3ccc(C(=O)Nc4ccc(Oc5ccccc5)cc4)cn3)n2)s1 [Compound I-270] shows IC50 below 30 nM
Response: Satisfied

###

- measurement-target: human TRPV4 (Homo sapiens, UniProt Q9HBA0)
- Construct: expressed in transfected cells; host or cells: CHO-K1
- assay-summary: Test Example 2' Measurement of TRPV4 inhibitory activity (IC50 value)
- Type: cell-based
- particulars: CHO-K1 cells stably expressing human TRPV4; DMEM 3% FBS, 3000 cells/well; final 0.15 μmol/L 4α-PDD
measured-parameter: pIC50
Just the number, please; pIC50 means minus log10 of the concentration in mol/L.

Prompt: Answer with the recorded pIC50 for the compound listed here: Cc1nc(C)c(-c2csc(Nc3ccc(C(=O)C4CCCC4)cn3)n2)s1
Response: 8.55
